tested on: Nucleic Acid; assay: Binding affinity to Bacillus subtilis AM1A C11U antiterminator model RNA variant assessed as increase in fluorescence by FRET assay relative to control; type: nucleic-acid assay; design: concentration or dose not given beside the values
# cutoff 20% applies to Activity; >= gives true (1), < gives false (0)

compound=O=C1N[C@H](CN2CCN(c3ccccc3)CC2)[C@@H](COC(=O)c2ccco2)O1 group_label="false (0)"
compound=O=C1N[C@H](CN2CCN(c3ccccc3)CC2)[C@@H](COC(=O)c2cc(OCc3ccccc3)c(OCc3ccccc3)c(OCc3ccccc3)c2)O1 group_label="false (0)"
compound=O=C(NCc1ccccc1)OC[C@H]1OC(=O)N[C@@H]1CN1CCN(c2ccccc2)CC1 group_label="false (0)"
compound=O=C(Nc1ccc([N+](=O)[O-])cc1)OC[C@H]1OC(=O)N[C@@H]1CN1CCN(c2ccccc2)CC1 group_label="false (0)"
compound=CC(C)(C)OC(=O)NCCCCC(=O)OC[C@H]1OC(=O)N[C@@H]1CN1CCN(c2ccccc2)CC1 group_label="true (1)"
compound=O=C1N[C@H](CN2CCN(c3ccccc3)CC2)[C@@H](COC(=O)c2ccccc2)O1 group_label="false (0)"
compound=CC(C)(C)NC(=O)OC[C@H]1OC(=O)N[C@@H]1CN1CCN(c2ccccc2)CC1 group_label="false (0)"
compound=CCc1ccc(NC(=O)OC[C@H]2OC(=O)N[C@@H]2CN2CCN(c3ccccc3)CC2)cc1 group_label="false (0)"
compound=O=C1N[C@H](CN2CCN(c3ccccc3)CC2)[C@@H](COC(=O)c2ccc([N+](=O)[O-])cc2)O1 group_label="false (0)"
compound=COc1ccc(NC(=O)OC[C@H]2OC(=O)N[C@@H]2CN2CCN(c3ccccc3)CC2)cc1 group_label="false (0)"
compound=O=C(Nc1cccc([N+](=O)[O-])c1)OC[C@H]1OC(=O)N[C@@H]1CN1CCN(c2ccccc2)CC1 group_label="false (0)"
compound=O=C1N[C@H](CN2CCN(c3ccccc3)CC2)[C@@H](COC(=O)c2ccc(Cl)cc2)O1 group_label="true (1)"
compound=O=C(Cc1ccc([N+](=O)[O-])cc1)OC[C@H]1OC(=O)N[C@@H]1CN1CCN(c2ccccc2)CC1 group_label="false (0)"
compound=COc1ccc(CC(=O)OC[C@H]2OC(=O)N[C@@H]2CN2CCN(c3ccccc3)CC2)cc1 group_label="false (0)"
compound="CC(C)=CCCC(C)CC(=O)OC[C@H]1OC(=O)N[C@@H]1CN1CCN(c2ccccc2)CC1 (stereo partly drawn)" group_label="true (1)"
compound=CC(C)CC(=O)OC[C@H]1OC(=O)N[C@@H]1CN1CCN(c2ccccc2)CC1 group_label="false (0)"

###

test system: Nucleic Acid; assay: Binding affinity to Bacillus subtilis AM1A antiterminator model RNA assessed as increase in fluorescence at 10 uM by FRET assay relative to control; format: nucleic-acid assay
Decision: Activity beneath 20% gives true (1); Activity meeting or exceeding 20% gives false (0).

smiles_notation=O=C1N[C@H](CN2CCN(c3ccccc3)CC2)[C@@H](COC(=O)c2ccccc2Cl)O1 group_label="false (0)"
smiles_notation=O=C(CCCC1CCCCC1)OC[C@H]1OC(=O)N[C@@H]1CN1CCN(c2ccccc2)CC1 group_label="false (0)"
smiles_notation=Cc1cccc(NC(=O)OC[C@H]2OC(=O)N[C@@H]2CN2CCN(c3ccccc3)CC2)c1 group_label="true (1)"
smiles_notation=O=C1N[C@H](CN2CCN(c3ccccc3)CC2)[C@@H](COC(=O)c2ccccc2Oc2ccccc2)O1 group_label="false (0)"
smiles_notation=O=C1N[C@H](CN2CCN(c3ccccc3)CC2)[C@@H](COC(=O)c2ccc([N+](=O)[O-])cc2)O1 group_label="true (1)"
smiles_notation=O=C(Nc1ccc(Cl)c(Cl)c1)OC[C@H]1OC(=O)N[C@@H]1CN1CCN(c2ccccc2)CC1 group_label="true (1)"
smiles_notation=O=C1N[C@H](CN2CCN(c3ccccc3)CC2)[C@@H](COC(=O)c2c(Cl)cccc2Cl)O1 group_label="true (1)"
smiles_notation=Cc1cccc(C(C)(C)C)c1NC(=O)OC[C@H]1OC(=O)N[C@@H]1CN1CCN(c2ccccc2)CC1 group_label="true (1)"
smiles_notation=O=C(Cc1ccccc1)OC[C@H]1OC(=O)N[C@@H]1CN1CCN(c2ccccc2)CC1 group_label="true (1)"
smiles_notation=Cc1c(C(=O)OC[C@H]2OC(=O)N[C@@H]2CN2CCN(c3ccccc3)CC2)cccc1[N+](=O)[O-] group_label="false (0)"
smiles_notation=O=C1N[C@H](CN2CCN(c3ccccc3)CC2)[C@@H](COC(=O)c2ccccc2)O1 group_label="true (1)"
smiles_notation=CCCCCC(=O)OC[C@H]1OC(=O)N[C@@H]1CN1CCN(c2ccccc2)CC1 group_label="true (1)"
smiles_notation=CC(C)(C)OC(=O)N[C@H](C(=O)OC[C@H]1OC(=O)N[C@@H]1CN1CCN(c2ccccc2)CC1)c1ccccc1 group_label="false (0)"
smiles_notation=N#Cc1ccccc1C(=O)OC[C@H]1OC(=O)N[C@@H]1CN1CCN(c2ccccc2)CC1 group_label="true (1)"
smiles_notation=O=C(CCCCCc1ccccc1)OC[C@H]1OC(=O)N[C@@H]1CN1CCN(c2ccccc2)CC1 group_label="false (0)"
smiles_notation=Cc1ccc(C(=O)OC[C@H]2OC(=O)N[C@@H]2CN2CCN(c3ccccc3)CC2)cc1 group_label="false (0)"

###

system: Nucleic Acid; assay: Binding affinity to Bacillus subtilis AM1A C11U antiterminator model RNA variant assessed as increase in fluorescence by FRET assay relative to control; format: nucleic-acid assay; parameters: concentration or dose not given beside the values
Item-by-item account of Activity
MEASURED ATTRIBUTE: Activity (%)

smiles_notation=O=C(Cc1ccccc1)OC[C@H]1OC(=O)N[C@@H]1CN1CCN(c2ccccc2)CC1 unit=% quantitative_readout=15.9
smiles_notation=CC(C)(C)OC(=O)N[C@H](C(=O)OC[C@H]1OC(=O)N[C@@H]1CN1CCN(c2ccccc2)CC1)c1ccccc1 unit=% quantitative_readout=19.4
smiles_notation=Cc1cccc(C(C)(C)C)c1NC(=O)OC[C@H]1OC(=O)N[C@@H]1CN1CCN(c2ccccc2)CC1 unit=% quantitative_readout=15.4
smiles_notation=O=C(Cc1ccc(Cl)c(Cl)c1)OC[C@H]1OC(=O)N[C@@H]1CN1CCN(c2ccccc2)CC1 unit=% quantitative_readout=28.9

###

test system: Nucleic Acid; assay: Binding affinity to Bacillus subtilis AM1A C11U antiterminator model RNA variant assessed as increase in fluorescence by FRET assay relative to control; type: nucleic-acid assay; set-up: concentration or dose not given beside the values
MEASURED ATTRIBUTE: Activity (%)

smiles_notation=COc1cccc(C(=O)OC[C@H]2OC(=O)N[C@@H]2CN2CCN(c3ccccc3)CC2)c1 tested_target="Nucleic Acid" measured_attribute=Activity unit=% quantitative_readout=24.7
smiles_notation=CN(C)c1cccc(C(=O)OC[C@H]2OC(=O)N[C@@H]2CN2CCN(c3ccccc3)CC2)c1 tested_target="Nucleic Acid" measured_attribute=Activity unit=% quantitative_readout=27.1
smiles_notation=Cc1ccc(C(=O)OC[C@H]2OC(=O)N[C@@H]2CN2CCN(c3ccccc3)CC2)cc1 tested_target="Nucleic Acid" measured_attribute=Activity unit=% quantitative_readout=27.5
smiles_notation=CC(C)(C)OC(=O)N[C@@H](C(=O)OC[C@H]1OC(=O)N[C@@H]1CN1CCN(c2ccccc2)CC1)c1ccccc1 tested_target="Nucleic Acid" measured_attribute=Activity unit=% quantitative_readout=42.6

###

Item-by-item account of Activity
tested on: Nucleic Acid; test: Binding affinity to Bacillus subtilis AM1A antiterminator model RNA assessed as increase in fluorescence at 10 uM by FRET assay relative to control; format: nucleic-acid assay
MEASURED ATTRIBUTE: Activity

molecule=CN(C)c1cccc(C(=O)OC[C@H]2OC(=O)N[C@@H]2CN2CCN(c3ccccc3)CC2)c1 measured_attribute=Activity result=24.6%
molecule=CC(C)CC(=O)OC[C@H]1OC(=O)N[C@@H]1CN1CCN(c2ccccc2)CC1 measured_attribute=Activity result=9.5%
molecule=CCCCCCNC(=O)OC[C@H]1OC(=O)N[C@@H]1CN1CCN(c2ccccc2)CC1 measured_attribute=Activity result=17.4%
molecule="O=C(CC1CC2CCC1C2)OC[C@H]1OC(=O)N[C@@H]1CN1CCN(c2ccccc2)CC1 (stereo partly specified)" measured_attribute=Activity result=29.5%
molecule=CC(C)(C)C(=O)OC[C@H]1OC(=O)N[C@@H]1CN1CCN(c2ccccc2)CC1 measured_attribute=Activity result=7.1%
molecule=CC(C)(C)OC(=O)NCCCCC(=O)OC[C@H]1OC(=O)N[C@@H]1CN1CCN(c2ccccc2)CC1 measured_attribute=Activity result=29.4%
molecule=CC(=O)c1ccc(NC(=O)OC[C@H]2OC(=O)N[C@@H]2CN2CCN(c3ccccc3)CC2)cc1 measured_attribute=Activity result=7.7%
molecule=COc1cccc(CC(=O)OC[C@H]2OC(=O)N[C@@H]2CN2CCN(c3ccccc3)CC2)c1 measured_attribute=Activity result=18.9%
molecule=O=C(Cc1ccc([N+](=O)[O-])cc1)OC[C@H]1OC(=O)N[C@@H]1CN1CCN(c2ccccc2)CC1 measured_attribute=Activity result=9.1%
molecule=O=C(Nc1cccc([N+](=O)[O-])c1)OC[C@H]1OC(=O)N[C@@H]1CN1CCN(c2ccccc2)CC1 measured_attribute=Activity result=-1.1%
molecule=CCCCCCCC(=O)OC[C@H]1OC(=O)N[C@@H]1CN1CCN(c2ccccc2)CC1 measured_attribute=Activity result=18.1%
molecule=CC(C)CCC(=O)OC[C@H]1OC(=O)N[C@@H]1CN1CCN(c2ccccc2)CC1 measured_attribute=Activity result=15%
molecule=O=C(NCc1ccccc1)OC[C@H]1OC(=O)N[C@@H]1CN1CCN(c2ccccc2)CC1 measured_attribute=Activity result=6.1%
molecule="CC(C)=CCCC(C)CC(=O)OC[C@H]1OC(=O)N[C@@H]1CN1CCN(c2ccccc2)CC1 (stereo partly specified)" measured_attribute=Activity result=38.9%
molecule=CCCCCc1ccc(NC(=O)OC[C@H]2OC(=O)N[C@@H]2CN2CCN(c3ccccc3)CC2)cc1 measured_attribute=Activity result=10.6%
molecule=O=C1N[C@H](CN2CCN(c3ccccc3)CC2)[C@@H](COC(=O)c2cc(OCc3ccccc3)c(OCc3ccccc3)c(OCc3ccccc3)c2)O1 measured_attribute=Activity result=14.3%
molecule=O=C(Nc1ccccc1)OC[C@H]1OC(=O)N[C@@H]1CN1CCN(c2ccccc2)CC1 measured_attribute=Activity result=8.4%
molecule=COc1ccc(NC(=O)OC[C@H]2OC(=O)N[C@@H]2CN2CCN(c3ccccc3)CC2)cc1 measured_attribute=Activity result=7.8%
molecule=O=C(COc1ccccc1)OC[C@H]1OC(=O)N[C@@H]1CN1CCN(c2ccccc2)CC1 measured_attribute=Activity result=9.5%
molecule=O=C1N[C@H](CN2CCN(c3ccccc3)CC2)[C@@H](COC(=O)c2ccccc2F)O1 measured_attribute=Activity result=18.5%
molecule=O=C1N[C@H](CN2CCN(c3ccccc3)CC2)[C@@H](COC(=O)c2ccc(Cl)cc2)O1 measured_attribute=Activity result=29.1%
molecule=O=C(Nc1ccc([N+](=O)[O-])cc1)OC[C@H]1OC(=O)N[C@@H]1CN1CCN(c2ccccc2)CC1 measured_attribute=Activity result=-1.8%
molecule=CCCNC(=O)OC[C@H]1OC(=O)N[C@@H]1CN1CCN(c2ccccc2)CC1 measured_attribute=Activity result=10.3%
molecule=O=C(Cc1ccc(Cl)c(Cl)c1)OC[C@H]1OC(=O)N[C@@H]1CN1CCN(c2ccccc2)CC1 measured_attribute=Activity result=29.1%
molecule=CCc1ccc(NC(=O)OC[C@H]2OC(=O)N[C@@H]2CN2CCN(c3ccccc3)CC2)cc1 measured_attribute=Activity result=18.3%
molecule=O=C(CCc1ccccc1)OC[C@H]1OC(=O)N[C@@H]1CN1CCN(c2ccccc2)CC1 measured_attribute=Activity result=20.6%
molecule=O=C1N[C@H](CN2CCN(c3ccccc3)CC2)[C@@H](COC(=O)c2ccccc2I)O1 measured_attribute=Activity result=28.6%
molecule=CCCCNC(=O)OC[C@H]1OC(=O)N[C@@H]1CN1CCN(c2ccccc2)CC1 measured_attribute=Activity result=10.5%
molecule=COc1ccc(CC(=O)OC[C@H]2OC(=O)N[C@@H]2CN2CCN(c3ccccc3)CC2)cc1 measured_attribute=Activity result=13.7%
molecule=O=C(Cc1ccc(-c2ccccc2)cc1)OC[C@H]1OC(=O)N[C@@H]1CN1CCN(c2ccccc2)CC1 measured_attribute=Activity result=25.3%
molecule=CC(C)(C)OC(=O)N[C@@H](C(=O)OC[C@H]1OC(=O)N[C@@H]1CN1CCN(c2ccccc2)CC1)c1ccccc1 measured_attribute=Activity result=39.6%
molecule=CCCC(=O)OC[C@H]1OC(=O)N[C@@H]1CN1CCN(c2ccccc2)CC1 measured_attribute=Activity result=10.1%
molecule=COc1cccc(C(=O)OC[C@H]2OC(=O)N[C@@H]2CN2CCN(c3ccccc3)CC2)c1 measured_attribute=Activity result=23.8%
molecule=CC(C)(C)NC(=O)OC[C@H]1OC(=O)N[C@@H]1CN1CCN(c2ccccc2)CC1 measured_attribute=Activity result=8.9%
molecule=O=C1N[C@H](CN2CCN(c3ccccc3)CC2)[C@@H](COC(=O)Oc2ccccc2)O1 measured_attribute=Activity result=12.4%
molecule=O=C1N[C@H](CN2CCN(c3ccccc3)CC2)[C@@H](COC(=O)c2ccco2)O1 measured_attribute=Activity result=6.4%
